- System: HEK-293T
- Procedure text: Multiplex assay against HEK293T
- Type: toxicity, cell-based
- Experimental parameters: human, 24 h, 1 µM, compound concentration 1 uM, replicate 1
Endpoint label: Population Pyknosed Nuclei (%)
Kindly answer with a numeric value in %, unit omitted.

Kindly note the recorded Population Pyknosed Nuclei (%) for `COc1ccccc1N1CCN(C[C@@H](C(=O)NC(C)(C)C)c2ccccc2)CC1.Cl.Cl` , which is 9

Form field Population Pyknosed Nuclei (%), entry `O=C1[C@H](Cc2ccc(O)cc2)N2C(=O)CCN(C(=O)NCc3ccccc3)[C@H]2CN1Cc1cccc2ccccc12` : 11

Reported Population Pyknosed Nuclei (%) ( CCCCCC(O)/C=C/[C@H]1C(=O)CC(O)C1C/C=C\CCCC(=O)O (some centres undefined) ) = 8

The compound `N#Cc1cc(F)cc(-c2nc(-c3ccc(F)cn3)no2)c1` showed Population Pyknosed Nuclei (%) equal to 12

Population Pyknosed Nuclei (%) in this record for `NCCc1cn(S(=O)(=O)c2c(Cl)nc3sccn23)c2ccccc12.O=C(O)C(=O)O` : 11

So for `Cc1cnc(-c2cc(N3CCN(C(=O)CCS(C)(=O)=O)CC3)ncc2Cl)c(C)c1` , the logged Population Pyknosed Nuclei (%) turned out to be 12

Short answer for `CCCCC(=O)N(Cc1ccc(-c2ccccc2-c2nnn[nH]2)cc1)[C@H](C(=O)O)C(C)C` : Population Pyknosed Nuclei (%) was 10

Recorded result, `CN[C@@H](C)C(=O)N[C@H](C(=O)N1CCC[C@H]1C(=O)Nc1snnc1-c1ccccc1)C1CCCCC1` , Population Pyknosed Nuclei (%): 10

Record `Cc1c(CC(=O)O)c2cccnc2n1Cc1ccc(S(C)(=O)=O)cc1C(F)(F)F` . Reported Population Pyknosed Nuclei (%): 10

Looking up O=C(NCCN1CCC(n2c(=O)[nH]c3cc(Cl)ccc32)CC1)c1ccc(F)cc1 [HALOPEMIDE] , I found its Population Pyknosed Nuclei (%) recorded as 12

Field Population Pyknosed Nuclei (%) (entry Cl.NCCc1ccc(O)c(O)c1 [DOPAMINE HYDROCHLORIDE] ) reads 13

Reported Population Pyknosed Nuclei (%) of `CN(C)C(=O)Cn1cc(-c2ccc(-c3cncc4ccccc34)cc2)cn1` : 10

The measured Population Pyknosed Nuclei (%) associated with `N#Cc1c(Oc2cccc(OS(=O)(=O)CCCC(F)(F)F)c2)cccc1C(F)(F)F` reads 12

get_value(item= `CN1CCN(c2cc(-c3ccccc3)nc(N)n2)CC1` , readout=Population Pyknosed Nuclei (%)) returns 11

Record `CC(C)COc1ccc(CNC(=O)N(Cc2ccc(F)cc2)C2CCN(C)CC2)cc1` . Reported Population Pyknosed Nuclei (%): 13

The compound Cc1sc2c(c1C)C(c1ccc(Cl)cc1)=N[C@@H](CC(=O)NCCCCCCCCNC(=O)COc1cccc3c1C(=O)N(C1CCC(=O)NC1=O)C3=O)c1nnc(C)n1-2 (some centres undefined) showed Population Pyknosed Nuclei (%) equal to 31

Population Pyknosed Nuclei (%) in this record for Cl.N=C(N)NC(=O)Cc1c(Cl)cccc1Cl [GUANFACINE HYDROCHLORIDE] : 11

response.value for `CC(=O)Nc1cccc2c1c(Sc1ccc(Cl)cc1)c(C)n2CC(=O)O` (field: Population Pyknosed Nuclei (%)) = 9

Lookup result for COC[C@@H](c1ccc(C(F)(F)F)cc1)N1CCN(C2(C)CCN(C(=O)c3c(C)ncnc3C)CC2)C[C@@H]1C.O=C(O)/C=C\C(=O)O [VICRIVIROC MALEATE] ; measured Population Pyknosed Nuclei (%): 10

* * *

- System: HEK-293T
- Procedure text: Multiplex assay against HEK293T
- Format: toxicity, cell-based
- Experimental parameters: human, 48 h, 10 µM, compound concentration 10 uM, replicate 2
Endpoint label: Population Fragmented Nuclei (%)
Give a bare numeral; the unit % is implied.

// Population Fragmented Nuclei (%) value for CCCCCC(O)/C=C/[C@H]1C(=O)CC(O)C1C/C=C\CCCC(=O)O (stereo not given in full) : 10

The reported value for CCCCC1=NC2(CCCC2)C(=O)N1Cc1ccc(-c2ccccc2-c2nnn[nH]2)cc1 [IRBESARTAN] in terms of Population Fragmented Nuclei (%) is 12

Looking up `C[C@H](N)COC(=O)[C@@H](CCCCN)NC(=O)Cc1c(-c2ccc3ccccc3c2)[nH]c2c1ccc1ccccc12` , I see its Population Fragmented Nuclei (%) listed as 14

Lab book: Population Fragmented Nuclei (%) of Cl.N=C(N)NC(=O)Cc1c(Cl)cccc1Cl [GUANFACINE HYDROCHLORIDE] noted as 12

Population Fragmented Nuclei (%) reading for `Cc1cccc(NC(=O)CN2CCC(c3ccccn3)CC2)c1.Cl.Cl` : 16

* * *

- Test system: Fibroblast
- Procedure text: Multiplex assay against human fibroblast
- Format: toxicity, cell-based
- Experimental parameters: 12 h, 10 µM, compound concentration 10 uM, replicate 1
Where Population Mitotic Cells (%) equals or exceeds 60%, the correct label is Y; where it does not, the label is N.

Say whether Cc1sc2c(c1C)C(c1ccc(Cl)cc1)=N[C@@H](CC(=O)NCCCCCCCCNC(=O)COc1cccc3c1C(=O)N(C1CCC(=O)NC1=O)C3=O)c1nnc(C)n1-2 (some centres undefined) shows Population Mitotic Cells (%) of 60% or more.
N

State whether the measured Population Mitotic Cells (%) reaches 60%, counting equality as reaching it, for `CN(C)C(=O)Cn1cc(-c2ccc(-c3cncc4ccccc34)cc2)cn1`
Y

Please tell me: is the molecule `Cc1onc(-c2ccccc2Cl)c1C(=O)N(C)c1ccc(Cl)cc1` at or over 60% in terms of Population Mitotic Cells (%)?
Y

Does the reported Population Mitotic Cells (%) for `O=C(CCCc1ccccc1)Nc1nc2ccccc2c(=O)s1` fall at or above the 60% mark?
N

Threshold query (Population Mitotic Cells (%) >= 60%) on `CN1CCN(c2cc(-c3ccccc3)nc(N)n2)CC1`
N

Hello, I need to know if `C[C@H](N)COC(=O)[C@@H](CCCCN)NC(=O)Cc1c(-c2ccc3ccccc3c2)[nH]c2c1ccc1ccccc12` has measured Population Mitotic Cells (%) not below 60%. Thanks!
N

Answer whether Population Mitotic Cells (%) of `N#Cc1cc(F)cc(-c2nc(-c3ccc(F)cn3)no2)c1` is greater than or equal to 60%.
N

Can CCCCCC(O)/C=C/[C@H]1C(=O)CC(O)C1C/C=C\CCCC(=O)O (some centres undefined) be said to have Population Mitotic Cells (%) at or above 60%?
N

Does Population Mitotic Cells (%) meet or surpass 60% for `CCCOc1ccc2[nH]cc(C3=CCNCC3)c2n1.Cl` ?
N

Is reported Population Mitotic Cells (%) greater than or equal to 60% here: `CC(C)(C)c1cc(NC(=O)Nc2ccc(-c3cn4c(n3)sc3cc(OCCN5CCOCC5)ccc34)cc2)no1`
N

Determine whether this molecule has Population Mitotic Cells (%) no lower than 60%: `N#Cc1c(Oc2cccc(OS(=O)(=O)CCCC(F)(F)F)c2)cccc1C(F)(F)F`
Y

Form field: Population Mitotic Cells (%) at least 60%? Entry: `Cc1c(CC(=O)O)c2cccnc2n1Cc1ccc(S(C)(=O)=O)cc1C(F)(F)F`
Y

Does the molecule `CC[C@@H](C)Nc1nc(C)nc2c(-c3ccc(OC)nc3C)c(C)nn12` have recorded Population Mitotic Cells (%) that is 60% or more?
N

Please tell me: is the molecule Cl.N=C(N)NC(=O)Cc1c(Cl)cccc1Cl [GUANFACINE HYDROCHLORIDE] at or over 60% in terms of Population Mitotic Cells (%)?
N

Is Population Mitotic Cells (%) at least 60%? Consider `O=C1[C@H](Cc2ccc(O)cc2)N2C(=O)CCN(C(=O)NCc3ccccc3)[C@H]2CN1Cc1cccc2ccccc12`
Y

Quick check, Population Mitotic Cells (%) >= 60%? `COc1ccccc1N1CCN(C[C@@H](C(=O)NC(C)(C)C)c2ccccc2)CC1.Cl.Cl`
N

Could you verify whether the entry `CCc1cc2cc(NS(=O)(=O)c3ccc(C#N)cc3)ccc2n(CC)c1=O` shows Population Mitotic Cells (%) of no less than 60%?
N

* * *

What Population Healthy Nuclei (%) was measured for each of the following?
- Tested on: Fibroblast
- Procedure text: Multiplex assay against human fibroblast
- Format: toxicity, cell-based
- Experimental parameters: 48 h, 10 µM, compound concentration 10 uM, replicate 1
Provide a numeric answer, followed by its unit.

Fill in: Fibroblast Population Healthy Nuclei (%) for `Cc1onc(-c2ccccc2Cl)c1C(=O)N(C)c1ccc(Cl)cc1` = 68%

Record `CC(C)(C)c1cc(NC(=O)Nc2ccc(-c3cn4c(n3)sc3cc(OCCN5CCOCC5)ccc34)cc2)no1` / Fibroblast, Population Healthy Nuclei (%) recorded as 56%

// assay Fibroblast, entry COC[C@@H](c1ccc(C(F)(F)F)cc1)N1CCN(C2(C)CCN(C(=O)c3c(C)ncnc3C)CC2)C[C@@H]1C.O=C(O)/C=C\C(=O)O [VICRIVIROC MALEATE] , Population Healthy Nuclei (%) value = 65%

I looked up `N#Cc1cc(F)cc(-c2nc(-c3ccc(F)cn3)no2)c1` and its Population Healthy Nuclei (%) for Fibroblast was 63%
